Test system: Streptococcus pneumoniae
methodSummary: Antimicrobial activity against Streptococcus pneumoniae 1629
Format: functional

| inputSmiles | MIC / µg/mL |
| --- | --- |
| CN(C)c1cncc(NC(=O)[C@@H]2CCCNN2C(=O)[C@H](CC2CCCC2)CN(O)C=O)n1 | 1 |
| CN(C(=O)[C@@H]1CCCNN1C(=O)[C@H](CC1CCCC1)CN(O)C=O)c1ccccn1 | 2 |
| O=CN(O)C[C@@H](CC1CCCC1)C(=O)N1NCCC[C@H]1C(=O)Nc1ccncn1 | 2 |
| O=CN(O)C[C@@H](CC1CCCC1)C(=O)N1NCCC[C@H]1C(=O)Nc1cnccn1 | 8 |
| O=CN(O)C[C@@H](CC1CCCC1)C(=O)N1NCCC[C@H]1C(=O)Nc1ccc(F)cn1 | 1 |
| O=CN(O)C[C@@H](CC1CCCC1)C(=O)N1NCCC[C@H]1C(=O)Nc1ccccn1 | 1 |
| Cc1nc(NC(=O)[C@@H]2CCCNN2C(=O)[C@H](CC2CCCC2)CN(O)C=O)sc1C | 1 |
| CCCNC(=O)[C@@H]1CCCNN1C(=O)[C@H](CC1CCCC1)CN(O)C=O | 4 |
| O=CN(O)C[C@@H](CC1CCCC1)C(=O)N1NCCC[C@H]1C(=O)Nc1cccnn1 | 4 |
| Cc1ccnc(NC(=O)[C@@H]2CCCNN2C(=O)[C@H](CC2CCCC2)CN(O)C=O)c1 | 2 |
| Cc1ccc(NC(=O)[C@@H]2CCCNN2C(=O)[C@H](CC2CCCC2)CN(O)C=O)nc1 | 2 |

====

methodSummary: Chromatographic hydrophobicity index, log D of compound at pH 7.4
Assay type: physicochemical
experimentalContext: buffer
Assign class by CHI: not lower than 3 means y; lower than 3 means n.

| compound | classLabel |
| --- | --- |
| Cc1nc(NNC(=O)[C@H](CC2CCCC2)CN(O)C=O)c(F)c(N2CCN3CCOC[C@@H]3C2)n1 [LANOPEPDEN] | n |
| CN1CCN(c2cncc(NC(=O)[C@@H]3CCCNN3C(=O)[C@H](CC3CCCC3)CN(O)C=O)n2)CC1 | n |
| O=CN(O)C[C@@H](CC1CCCC1)C(=O)N1NCCC[C@H]1C(=O)N1CCCCC1 | y |
| CCc1nnc(NC(=O)[C@@H]2CCCNN2C(=O)[C@H](CC2CCCC2)CN(O)C=O)s1 | y |
| O=CN(O)C[C@@H](CC1CCCC1)C(=O)N1NCCC[C@H]1C(=O)Nc1ccc(F)cn1 | y |
| O=CN(O)C[C@@H](CC1CCCC1)C(=O)N1NCCC[C@H]1C(=O)Nc1ccccn1 | y |
| Cc1nc(NC(=O)[C@@H]2CCCNN2C(=O)[C@H](CC2CCCC2)CN(O)C=O)sc1C | y |
| CN1CCN(c2cc(NC(=O)[C@@H]3CCCNN3C(=O)[C@H](CC3CCCC3)CN(O)C=O)ncn2)CC1 | n |
| O=CN(O)C[C@@H](CC1CCCC1)C(=O)N1NCCC[C@H]1C(=O)Nc1ccncn1 | n |

====

methodSummary: Inhibition of Streptococcus pneumoniae PDF by fluorescence detection assay

| inputSmiles | IC50 |
| --- | --- |
| Cc1ccc(NC(=O)[C@@H]2CCCNN2C(=O)[C@H](CC2CCCC2)CN(O)C=O)nc1 | 0.6 nM |
| CN(C)c1cncc(NC(=O)[C@@H]2CCCNN2C(=O)[C@H](CC2CCCC2)CN(O)C=O)n1 | 0.79 nM |
| CN1CCN(c2cc(NC(=O)[C@@H]3CCCNN3C(=O)[C@H](CC3CCCC3)CN(O)C=O)ncn2)CC1 | 1 nM |
